Origin of the recorded values: PubChem BioAssay (NCI)

Test system: NCI-H226 lung
Test: NCI-60 one-dose screen, 48 h (100 = growth as untreated, 0 = no growth, -100 = all killed)
Conditions: 10 µM unless noted
Compounds without any hit were thinned out: in the full panel of roughly 83,000, 20% have a hit.
Assay endpoint: growth (%)
# unit: % | format: bare number

Query: Item CC12CC[C@H](O)C=C1/C(=N/O)CC1C2CCC2(C)C1CC[C@@H]2O (some centres not stated) with NCI-H226 lung - growth?
Reply: 97.1

Query: Item C[C@]12CC[C@H]3[C@@H](C[C@@H]4N=C(c5ccc(O)cc5)S[C@@]45C[C@H](O)CC[C@]35C)[C@@H]1CC[C@@H]2O with NCI-H226 lung - growth?
Reply: 110

Query: Item CC(N)Cc1ccc(O)cc1 (configuration not stated) with NCI-H226 lung - growth?
Reply: 99.2

Query: Item C[C@]12CCc3sc(-c4ccc(Cl)cc4)nc3C1=CC[C@@H]1[C@@H]2CC[C@]2(C)C(=O)CC[C@@H]12 with NCI-H226 lung - growth?
Reply: 84.3

Query: Item O=c1[nH]c2cc(Cl)ccc2n1C1CCN(CCCC(c2ccc(F)cc2)c2ccc(F)cc2)CC1 with NCI-H226 lung - growth?
Reply: 126

---

Tested on: OVCAR-3 ovarian
Test: NCI-60 one-dose screen, 48 h
Details: 10 µM unless noted
This is part of a sample that, as a whole, favours compounds with a hit. Of some 83,000 tested, about 20% had one in any assay. Activity calls are given as the source filed them. How the source made its calls: active means growth percent below 10; inactive means the rest.
Just give me one of these, please: 1 (active), 0 (inactive)

Query: Test call for this compound, please: CCOC(=O)C1(c2ccccc2)CCN(CC(=O)c2ccc(NC(C)=O)cc2)CC1
Reply: 0

Further cases:
Query: Test call for this compound, please: O=S(=O)(F)c1ncnc2nc[nH]c12
Reply: 0

Query: Test call for this compound, please: CCOCC1(CCc2ccccc2)C(=O)NC(=S)NC1=O
Reply: 0

Query: Test call for this compound, please: CC(=O)Oc1ccc(Cl)cc1
Reply: 0

Query: Test call for this compound, please: CN=C(NN)NN
Reply: 0

Query: Test call for this compound, please: Nc1cccc2c1Oc1ccccc1O2
Reply: 0

---

System: NCI-H322M lung
Assay: NCI-60 one-dose screen, 48 h
Details: 10 µM unless noted
Experimental: Growth inhibition of the NCI-H322M human Non-Small Cell Lung tumor cell line is measured as a screen for anti-cancer activity. Cells are grown in 96 well plates and exposed to the test compound for 48 hours. Compounds are tested at a single concentration, which is 10^-5 M for most compounds. The reported endpoint is percent growth (GI% or GIPRCNT), where numbers from 0 - 100% represent growth inhibition, and numbers from -100% - 0 represent cell death. […]
About 83,000 compounds went through this panel and 20% of them were active in at least one assay; those are over-represented in the sample as a whole. Active and inactive are the calls of the source. How the source made its calls: active means growth percent below 10; inactive means the rest.
Just give me one of these, please: active, inactive

Solved cases (8 shown):
Query: Test call for this compound, please: N#C[Se]CCN1C(=O)C2C(C1=O)[C@H]1C=C[C@@H]2S1 (stereo not given in full)
Reply: active

Query: Test call for this compound, please: COc1cc(/C=C\c2cc(OC)c(OC)c(OC)c2)cc(N/C=C\C(=O)c2ccc(OC(F)(F)F)cc2)c1OC
Reply: inactive

Query: Test call for this compound, please: CC1(C)N=C(N)N=C(N)N1c1ccc(CCC(=O)Nc2cccc(S(=O)(=O)F)c2)cc1
Reply: inactive

Query: Test call for this compound, please: O=C(O)c1[nH]c(=O)[nH]c(=O)c1F
Reply: inactive

Query: Test call for this compound, please: CC(C)[C@]12O[C@H]1[C@@H]1O[C@]13[C@]1(O[C@H]1C[C@H]1C4=C(CC[C@@]13C)C(=O)OC4)[C@@H]2OC(=O)OC(C)(C)C
Reply: active

Query: Test call for this compound, please: O=C1NC(=O)C(CN2C(=O)C3(c4ccccc42)[C@H](Cl)C(=O)N3c2ccccc2)C(=O)N1 (stereo not given in full)
Reply: inactive

Query: Test call for this compound, please: N#CC1=C(N)Oc2cc3c(cc2C1c1cccs1)OCO3 (stereo not given)
Reply: inactive

Query: Test call for this compound, please: CCCCN(CCCC)CC(O)c1ccccc1 (stereo not given)
Reply: inactive

Further cases:
Query: Test call for this compound, please: CC(C)(C)NCC(O)c1ccccc1Cl (stereo not given)
Reply: inactive

Query: Test call for this compound, please: COc1ccc(OC)c(/C=C(/C)[N+](=O)[O-])c1
Reply: inactive
